All values here come from patent US20150118233A1.

target: hRSV FTM- NN protein (membrane anchorless form of the Long fusion protein, 70 kDa) (hRSV strain Long); assay: SPR (Biacore T100), FTM- NN amine-coupled, 1:1 Langmuir fit

Binder: Nanobody NC41 (VHH) VHH: EVQLVESGGGLVQAGGSLSISCAASGGSLSNYVLGWFRQAPGKEREFVAAINWRGDITIGPPNVEGRFTISRDNAKNTGYLQMNSLAPDDTAVYYCGAGTPLNPGAYIYDWSYDYWGRGTQVTVSS
koff: 0.0067 s⁻¹
//
Binder: Nanobody 191E4 (VHH) VHH: EVQLVESGGGLVQAGGSLRLSCAASGPTFSADTMGWFRQAPGKEREFVATIPWSGGIAYYSDSVKGRFTMSRDNAKNTVDLQMNSLKPEDTALYYCAGSSRIYIYSDSLSERSYDYWGQGTQVTVSS
koff: 0.00015 s⁻¹
